- Tested on: M14 melanoma
- Measurement Description: NCI tumour cell line growth inhibition, 48 h
Value Kind: TGI

Here's what some known entries look like.
O=[N+]([O-])c1cc(I)cc(/C=N/NS(=O)(=O)c2ccc(F)cc2)c1O ... 82.3 µM
Oc1ccc(Br)cc1C=NC1CCCCC1 ... > 100 µM
CC12CP(=O)(O)CC1C2(Cl)Cl (stereo unspecified) ... > 100 µM
COc1c(C)c(C/C=C(\C)CC/C=C(\C)CC/C=C(\C)CC/C=C(\C)CCC=C(C)C)c(OC)c(OC)c1OC ... > 100 µM
COc1ccc(CC2Cc3ccccc3CC(=O)N2)cc1OC (stereo unspecified) ... > 100 µM

Respond only with TGI recorded for CC(=O)OCCCCn1nncc1Cn1ccc(=O)n(Cc2cnnn2CCCCOC(C)=O)c1=O
> 100 µM
